- method.summary: Selectivity index, ratio of IC50 for cytotoxicity against human MRC5 cells to IC50 for antiproliferative activity against human MDA-MB-231 cells
- Assay type: toxicity, cell-based
- recorded.conditions: MRC5 cells and MDA-MB-231 cells, read-out: Ratio IC50
Provide the reported selectivity ratio of each item.
Simply state the number, no unit and no words.

Item O=C(NCCc1c[nH]c2ccccc12)c1cc2c([nH]c3ccccc32)c(-c2ccc(O)cc2)n1 has what recorded selectivity ratio?
8.15

Item CC(=O)c1nc(C(=O)Nc2ccc3[nH]ccc3c2)cc2c1[nH]c1ccccc12 has what recorded selectivity ratio?
6.91

Item CC(=O)c1nc(C(=O)NCc2ccccc2O)cc2c1[nH]c1ccccc12 has what recorded selectivity ratio?
3.7

Item O=C(NCCc1c[nH]c2ccccc12)c1cc2c([nH]c3ccccc32)c(C(=O)c2ccccc2)n1 has what recorded selectivity ratio?
1.5

Item O=C(NCCc1c[nH]c2ccccc12)c1cc2c([nH]c3ccccc32)c(C(=O)c2ccc(O)cc2)n1 has what recorded selectivity ratio?
5.76

Item O=C(NCCc1c[nH]c2ccccc12)c1cc2c([nH]c3ccccc32)c(-c2ccc(Br)cc2)n1 has what recorded selectivity ratio?
6.19

Item COc1ccc2[nH]cc(CCNC(=O)c3cc4c([nH]c5ccccc54)c(C(C)=O)n3)c2c1 has what recorded selectivity ratio?
3.62

Item CC(=O)c1nc(C(=O)NCCc2c(C)[nH]c3ccccc23)cc2c1[nH]c1ccccc12 has what recorded selectivity ratio?
3.71

Item O=C(NCCc1c[nH]c2ccccc12)c1cc2c([nH]c3ccccc32)c(C(=O)c2ccc(Br)cc2)n1 has what recorded selectivity ratio?
10.7

Item CC(=O)c1nc(C(=O)NCCCO)cc2c1[nH]c1ccccc12 has what recorded selectivity ratio?
2.5

Item CC(=O)c1nc(C(=O)NCCc2c[nH]c3ccc(Cl)cc23)cc2c1[nH]c1ccccc12 has what recorded selectivity ratio?
6.14

* * *

- method.summary: Cytotoxicity against human MRC5 cells assessed as reduction in cell viability incubated for 72 hrs by sulforhodamine B assay
- Assay type: toxicity, cell-based
Provide the reported IC50 at 72 h of each item.
Your answer is read as µM, so omit the unit and give the number.

Item CC(=O)c1nc(C(=O)Nc2ccc3[nH]ccc3c2)cc2c1[nH]c1ccccc12 has what recorded IC50 at 72 h?
48.2

Item O=C(NCCc1c[nH]c2ccccc12)c1cc2c([nH]c3ccccc32)c(-c2ccc(O)cc2)n1 has what recorded IC50 at 72 h?
46.3

Item CC(=O)c1nc(C(=O)NCCc2c[nH]c3ccccc23)cc2c1[nH]c1ccccc12 [MARINACARBOLINE D] has what recorded IC50 at 72 h?
27.2

Item CC(=O)c1nc(C(=O)NCCc2c(C)[nH]c3ccccc23)cc2c1[nH]c1ccccc12 has what recorded IC50 at 72 h?
41.9

* * *

Provide the reported IC50 at 72 h of each item.
- method.summary: Cytotoxicity against human MRC5 cells assessed as reduction in cell viability incubated for 72 hrs by sulforhodamine B assay
- Format: toxicity, cell-based

Item COc1ccc(CNC(=O)c2cc3c([nH]c4ccccc43)c(C(C)=O)n2)cc1 has what recorded IC50 at 72 h?
> 50 µM

Item O=C(NCCc1c[nH]c2ccccc12)c1cc2c([nH]c3ccccc32)c(C(=O)c2ccc(Br)cc2)n1 has what recorded IC50 at 72 h?
33.2 µM

Item CC(=O)c1nc(C(=O)NCCc2ccc(O)cc2)cc2c1[nH]c1ccccc12 has what recorded IC50 at 72 h?
> 50 µM

Item Cc1ccc(C(=O)c2nc(C(=O)NCCc3c[nH]c4ccccc34)cc3c2[nH]c2ccccc23)cc1 has what recorded IC50 at 72 h?
41.2 µM

Item Cc1ccc(-c2nc(C(=O)NCCc3c[nH]c4ccccc34)cc3c2[nH]c2ccccc23)cc1 has what recorded IC50 at 72 h?
42 µM

Item O=C(NCCc1c[nH]c2ccccc12)c1cc2c([nH]c3ccccc32)c(C(=O)c2ccccc2)n1 has what recorded IC50 at 72 h?
31.9 µM

Item CC(=O)c1nc(C(=O)NCCCO)cc2c1[nH]c1ccccc12 has what recorded IC50 at 72 h?
41.2 µM

Item CC(=O)c1nc(C(=O)NCc2ccc(O)cc2)cc2c1[nH]c1ccccc12 has what recorded IC50 at 72 h?
> 50 µM

Item CC(=O)c1nc(C(=O)NC(C)C)cc2c1[nH]c1ccccc12 has what recorded IC50 at 72 h?
> 50 µM

Item COc1cc([C@@H]2c3cc4c(cc3[C@@H](O[C@@H]3O[C@@H]5CO[C@@H](C)O[C@H]5[C@H](O)[C@H]3O)[C@H]3COC(=O)[C@H]23)OCO4)cc(OC)c1O [ETOPOSIDE] has what recorded IC50 at 72 h?
13.5 µM

Item CC(=O)c1nc(C(=O)N(C)C)cc2c1[nH]c1ccccc12 has what recorded IC50 at 72 h?
> 50 µM

Item CC(=O)c1nc(C(=O)O)cc2c1[nH]c1ccccc12 has what recorded IC50 at 72 h?
> 50 µM

Item CC(=O)c1nc(C(=O)NCc2ccc(F)cc2)cc2c1[nH]c1ccccc12 has what recorded IC50 at 72 h?
> 50 µM

Item CC(=O)c1nc(C(=O)NCc2ccc(C#N)cc2)cc2c1[nH]c1ccccc12 has what recorded IC50 at 72 h?
> 50 µM

Item CC(=O)c1nc(C(=O)Nc2ccccc2)cc2c1[nH]c1ccccc12 has what recorded IC50 at 72 h?
> 50 µM

Item CC(=O)c1nc(C(=O)NCCCc2c[nH]c3ccccc23)cc2c1[nH]c1ccccc12 has what recorded IC50 at 72 h?
> 50 µM

Item COC(=O)c1cc2c([nH]c3ccccc32)c(C(C)=O)n1 has what recorded IC50 at 72 h?
> 50 µM

Item CC(=O)c1nc(C(=O)OCCc2c[nH]c3ccccc23)cc2c1[nH]c1ccccc12 has what recorded IC50 at 72 h?
38.3 µM

Item CCCC(=O)c1nc(C(=O)NCCc2c[nH]c3ccccc23)cc2c1[nH]c1ccccc12 has what recorded IC50 at 72 h?
> 50 µM

Item CC(=O)c1nc(C(=O)NCCc2ccccc2)cc2c1[nH]c1ccccc12 has what recorded IC50 at 72 h?
> 50 µM

Item CC(=O)c1nc(C(=O)NCc2ccc(Cl)cc2)cc2c1[nH]c1ccccc12 has what recorded IC50 at 72 h?
> 50 µM

Item CC(=O)c1nc(C(=O)NCc2ccccc2O)cc2c1[nH]c1ccccc12 has what recorded IC50 at 72 h?
38.3 µM

Item COc1ccc(NC(=O)c2cc3c([nH]c4ccccc43)c(C(C)=O)n2)cc1 has what recorded IC50 at 72 h?
> 50 µM

Item CC(=O)c1nc(C(=O)N(Cc2ccccc2)Cc2ccccc2)cc2c1[nH]c1ccccc12 has what recorded IC50 at 72 h?
> 50 µM

Item CC(=O)c1nc(C(=O)NCc2c[nH]c3ccccc23)cc2c1[nH]c1ccccc12 has what recorded IC50 at 72 h?
> 50 µM

Item O=C(NCCc1c[nH]c2ccccc12)c1cc2c([nH]c3ccccc32)c(-c2ccc(Br)cc2)n1 has what recorded IC50 at 72 h?
48.8 µM

Item O=C(NCCc1c[nH]c2ccccc12)c1cc2c([nH]c3ccccc32)c(C(=O)c2ccccc2Br)n1 has what recorded IC50 at 72 h?
> 50 µM

Item COc1ccc2[nH]cc(CCNC(=O)c3cc4c([nH]c5ccccc54)c(C(C)=O)n3)c2c1 has what recorded IC50 at 72 h?
39.3 µM

Item CC(=O)c1nc(C(=O)NCCCN(C)C)cc2c1[nH]c1ccccc12 has what recorded IC50 at 72 h?
> 50 µM

Item CCCCNC(=O)c1cc2c([nH]c3ccccc32)c(C(C)=O)n1 has what recorded IC50 at 72 h?
> 50 µM

Item O=C(NCCc1c[nH]c2ccccc12)c1cc2c([nH]c3ccccc32)c(-c2ccccc2)n1 has what recorded IC50 at 72 h?
> 50 µM

Item CC(=O)c1nc(C(=O)Nc2ccc(N)cc2)cc2c1[nH]c1ccccc12 has what recorded IC50 at 72 h?
> 50 µM

Item CC(=O)c1nc(C(=O)NCCc2c[nH]c3ccc(Cl)cc23)cc2c1[nH]c1ccccc12 has what recorded IC50 at 72 h?
36.5 µM

Item O=C(NCCc1c[nH]c2ccccc12)c1cc2c([nH]c3ccccc32)c(C(=O)c2ccc(O)cc2)n1 has what recorded IC50 at 72 h?
39.3 µM

Item CC(=O)c1nc(C(=O)NCc2ccccc2)cc2c1[nH]c1ccccc12 has what recorded IC50 at 72 h?
> 50 µM

Item CCCN(CCC)C(=O)c1cc2c([nH]c3ccccc32)c(C(C)=O)n1 has what recorded IC50 at 72 h?
> 50 µM

Item CC(=O)c1nc(C(=O)Nc2ccc(C(F)(F)F)cc2)cc2c1[nH]c1ccccc12 has what recorded IC50 at 72 h?
> 50 µM
